Target: GABA-A receptor; alpha-1/beta-3/gamma-2 (Homo sapiens, UniProt P14867+P18507+P28472)
Sequence (P14867 whole entry): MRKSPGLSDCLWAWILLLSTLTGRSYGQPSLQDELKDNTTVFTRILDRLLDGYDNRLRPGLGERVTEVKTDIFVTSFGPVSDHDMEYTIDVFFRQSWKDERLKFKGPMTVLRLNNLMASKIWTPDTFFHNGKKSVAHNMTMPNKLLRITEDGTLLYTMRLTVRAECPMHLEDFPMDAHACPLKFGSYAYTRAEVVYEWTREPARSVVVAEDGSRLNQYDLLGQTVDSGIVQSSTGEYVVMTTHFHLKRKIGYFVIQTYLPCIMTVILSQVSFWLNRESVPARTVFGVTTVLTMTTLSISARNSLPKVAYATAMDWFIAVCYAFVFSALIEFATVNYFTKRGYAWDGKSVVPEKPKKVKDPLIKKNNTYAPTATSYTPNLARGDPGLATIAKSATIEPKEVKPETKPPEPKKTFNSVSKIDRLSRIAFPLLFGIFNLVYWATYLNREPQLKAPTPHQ
Sequence (P18507 whole entry): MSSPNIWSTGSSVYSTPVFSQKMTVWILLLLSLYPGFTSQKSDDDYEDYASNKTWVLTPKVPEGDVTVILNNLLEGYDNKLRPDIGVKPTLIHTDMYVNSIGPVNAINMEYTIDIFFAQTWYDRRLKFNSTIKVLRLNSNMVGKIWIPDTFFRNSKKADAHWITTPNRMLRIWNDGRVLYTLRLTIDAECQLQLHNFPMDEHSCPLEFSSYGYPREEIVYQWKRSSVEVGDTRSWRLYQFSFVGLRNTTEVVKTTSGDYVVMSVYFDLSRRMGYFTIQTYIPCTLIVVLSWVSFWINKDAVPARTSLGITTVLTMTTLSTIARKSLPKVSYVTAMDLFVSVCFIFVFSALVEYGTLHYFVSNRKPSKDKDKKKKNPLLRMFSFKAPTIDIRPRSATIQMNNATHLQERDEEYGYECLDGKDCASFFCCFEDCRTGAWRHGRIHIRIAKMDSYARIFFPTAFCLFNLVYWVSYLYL
Sequence (P28472 whole entry): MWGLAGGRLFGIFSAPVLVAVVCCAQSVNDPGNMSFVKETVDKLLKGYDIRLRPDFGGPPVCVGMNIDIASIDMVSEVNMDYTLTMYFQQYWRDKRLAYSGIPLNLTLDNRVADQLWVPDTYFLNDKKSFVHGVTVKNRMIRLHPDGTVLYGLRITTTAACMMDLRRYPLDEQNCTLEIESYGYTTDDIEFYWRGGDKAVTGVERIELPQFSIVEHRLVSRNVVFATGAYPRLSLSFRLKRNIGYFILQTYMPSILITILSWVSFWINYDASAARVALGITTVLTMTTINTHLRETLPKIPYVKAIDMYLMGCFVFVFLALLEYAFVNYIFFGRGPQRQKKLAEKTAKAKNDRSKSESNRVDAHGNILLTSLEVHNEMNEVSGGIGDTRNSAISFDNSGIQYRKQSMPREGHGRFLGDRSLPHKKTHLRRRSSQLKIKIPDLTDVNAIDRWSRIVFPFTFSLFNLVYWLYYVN
Assay: Binding affinity at human recombinant gamma-aminobutyric-acid A receptor alpha-1-beta-3-gamma-2 expressed in L(tk) cells by [3H]Ro-151788 displacement.
Type: cell-based
Threshold check on Ki: strictly below 5 nM is rule met; on or above 5 nM is rule not met.

[[record]]
substance_smiles = "Cc1csc(-c2cc(-c3ccccc3)c3n(c2=O)CCCc2ccncc2-3)n1"
label = "rule met"

[[record]]
substance_smiles = "Cc1csc(-c2cc(-c3cccnc3)c3n(c2=O)CCCc2ccncc2-3)n1"
label = "rule not met"

[[record]]
substance_smiles = "Cc1csc(-c2cc(-c3ccc(C#N)cc3)c3n(c2=O)CCCc2ccncc2-3)n1"
label = "rule not met"

[[record]]
substance_smiles = "Cc1csc(-c2cc(-c3ccccc3C)c3n(c2=O)CCCc2ccncc2-3)n1"
label = "rule met"

[[record]]
substance_smiles = "Cc1csc(-c2cc(-c3ccc4ccccc4c3)c3n(c2=O)CCCc2ccncc2-3)n1"
label = "rule not met"

[[record]]
substance_smiles = "Cc1csc(-c2cc(-c3ccnnc3)c3n(c2=O)CCCc2ccncc2-3)n1"
label = "rule not met"

